protocolDescription: qHTS drug screen for cell cycle checkpoint inhibitors in PARPi-resistant BRCA-mutant ovarian cancer cell lines. (AID 1963452)
conditionLabel: PEO1/OlaR viability, CellTiter-Glo luminescence, 96 h; measured here: PEO1 parental Z-AUC; stronger effect = lower value
Text: Women's Malignancies Branch, Center for Cancer Research (CCR), National Cancer Institute (NCI), National Institutes of Health (NIH), Bethesda, MD Poly (ADP-ribose) polymerase inhibitors (PARPis) have changed the treatment paradigm in breast cancer gene (BRCA) - mutant high-grade serous ovarian carcinoma (HGSC). […] 6; Detection; Luminescence, PHERAstar (BMG Labtech) plate reader. […] 6. Luminescence readings were taken using PHERAstar (BMG Labtech). […]
Criterion: Z-AUC strictly under -0.2. Met: Condition met. Not met: Condition not met.

Sample answers from the record:
compound	classAssignment
N#C[C@@H]1C[C@@H]2C[C@@H]2N1C(=O)[C@@H](N)C12CC3CC(CC(O)(C3)C1)C2	Condition not met
Nc1ncnc2c1ncn2[C@@H]1O[C@H](CO)C[C@H]1O	Condition not met

Data request: Is Z-AUC strictly under -0.2 for the entry C/C=C/CC(C)C(O)C1C(=O)NC(CC)C(=O)N(C)CC(=O)N(C)C(CC(C)C)C(=O)NC(C(C)C)C(=O)N(C)C(CC(C)C)C(=O)NC(C)C(=O)NC(C)C(=O)N(C)C(CC(C)C)C(=O)N(C)C(CC(C)C)C(=O)N(C)C(C(C)C)C(=O)N1C (centres undefined) ?
Data returned: Condition not met

Data request: Is Z-AUC strictly under -0.2 for the entry C[C@@H](Nc1cc(F)cc(F)c1)c1cc(C(=O)N(C)C)cc2c(=O)cc(N3CCOCC3)oc12 ?
Data returned: Condition met

Data request: Is Z-AUC strictly under -0.2 for the entry C[C@@H]1COCCN1c1cc(C2(S(C)(=N)=O)CC2)nc(-c2ccnc3[nH]ccc23)n1 (some centres undefined) ?
Data returned: Condition met

Data request: Is Z-AUC strictly under -0.2 for the entry CC(=O)Nc1ccc(C(=O)NC(C)(C)C)cc1 ?
Data returned: Condition not met

Data request: Is Z-AUC strictly under -0.2 for the entry Cn1nccc1Nc1nccc(-c2ccn([C@H](CO)c3ccc(Cl)c(F)c3)c(=O)c2)n1 ?
Data returned: Condition met
